TARGET_ENTITY: T1, CASK-CaMK (residues 1-337) (UniProt Q62915 1-337)
T1 chain: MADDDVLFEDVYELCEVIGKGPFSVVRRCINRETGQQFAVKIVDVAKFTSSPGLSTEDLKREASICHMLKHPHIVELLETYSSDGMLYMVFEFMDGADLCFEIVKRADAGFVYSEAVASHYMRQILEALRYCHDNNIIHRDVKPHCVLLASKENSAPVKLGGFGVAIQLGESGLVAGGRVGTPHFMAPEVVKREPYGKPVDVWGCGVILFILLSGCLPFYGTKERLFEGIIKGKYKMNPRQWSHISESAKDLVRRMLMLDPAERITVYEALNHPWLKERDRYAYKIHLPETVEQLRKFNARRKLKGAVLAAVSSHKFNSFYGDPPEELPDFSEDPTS
METHOD_NOTES: ITC
READOUT: pKd
Friendly reminder that pKd comes from taking -log10 of the concentration in mol/L.

Query: Item Mint1-CID (residues 338-397) (domain or fragment, UniProt O35430 338-397, looked up, also called the entire CID; the whole CID; source: E. coli BL21 (DE3), purified (Ni2+-Sepharose, size-exclusion chromatography); not shown: Trx, N-terminal, cleaved; His6, N-terminal, cleaved) QRYSKEKRDAISLAIKDIKEAIEEVKTRTIRSPYTPDEPKEPIWVMRQDISPTRDCDDQR has what recorded pKd?
Response: 7.77
